Origin of measurements: ChEMBL document CHEMBL1961873

Target: Serine/threonine-protein kinase Nek2 (Homo sapiens);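 note: mean inhibition value from the GSK PKIS kinase screening panel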
Sequence (whole entry): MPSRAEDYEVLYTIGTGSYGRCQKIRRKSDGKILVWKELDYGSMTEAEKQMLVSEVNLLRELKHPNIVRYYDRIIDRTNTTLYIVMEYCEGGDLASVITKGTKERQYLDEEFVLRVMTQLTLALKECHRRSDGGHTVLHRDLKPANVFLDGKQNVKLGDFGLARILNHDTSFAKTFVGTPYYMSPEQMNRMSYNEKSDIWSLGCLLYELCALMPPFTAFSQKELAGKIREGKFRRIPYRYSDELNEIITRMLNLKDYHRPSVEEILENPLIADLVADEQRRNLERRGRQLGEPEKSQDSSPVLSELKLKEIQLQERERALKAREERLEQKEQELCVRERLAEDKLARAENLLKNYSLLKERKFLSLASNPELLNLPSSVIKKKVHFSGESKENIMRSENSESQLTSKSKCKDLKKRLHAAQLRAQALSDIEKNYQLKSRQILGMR
Details: at 0.1 µM
Quantity: inhibition (%)
Give a bare numeral; the unit % is implied.

Ask: Given "NS(=O)(=O)c1cccc(-c2cc3ccncc3cc2OCc2ccccc2)c1" , state its recorded inhibition.
Reply: 5.53

Ask: Cool, now "CN(c1ccc(NC(=O)Nc2ccc(OC(F)(F)F)cc2)cc1)c1ccnc(Nc2cccc(S(N)(=O)=O)c2)n1"
Reply: 2.68

Ask: // next record "NS(=O)(=O)c1cccc(Nc2cc(-c3ccc(F)cc3)n[nH]2)c1"
Reply: 4.43

Ask: Please answer likewise for "COC(=O)Nc1nc2cc(Oc3ccc(NC(=O)Nc4cccc(Br)c4)cc3)ccc2[nH]1"
Reply: 3.46

Ask: Would you mind doing "Cc1ccc2c(-c3ccnc(Nc4ccc5c(c4)OCCO5)n3)c(-c3ccc(C(F)(F)F)cc3)nn2n1" as well?
Reply: 1.37

Ask: Can you handle "[O-][S+]1CCN(Cc2ccc(-c3ccc4ncnc(Nc5ccc(OCc6ccccc6)c(Cl)c5)c4c3)o2)CC1" next?
Reply: 3.08

Ask: Same thing, different compound: "NC(=O)c1cccc(Nc2nccc(Nc3cccc(F)c3)n2)c1"
Reply: 3.22

Ask: Note, next up: "OCc1ccc(-c2nc(-c3ccccn3)c(-c3ccc4c(c3)OCO4)[nH]2)cc1"
Reply: 5.76

Ask: Entry "COc1cc(/C=N/Nc2ncnc3c2cnn3C(C)C)ccc1O" please
Reply: 2.62

Ask: Could you do the same for "COc1ccc2ncnc(Nc3ccc(OCc4ccccc4)cc3)c2c1" , please?
Reply: 1.74

Ask: Now give it for "CCS(=O)(=O)c1ccc(OC)c(Nc2ncc(-c3cccc(OC)c3)o2)c1" too.
Reply: 2.73

Ask: "O=C1Nc2ccc(-c3cccnc3)cc2C1=Cc1cc(Br)c(O)c(Br)c1" , same question.
Reply: 4.11

Ask: Now this one: "COc1cc2ncnc(Nc3ccc(C)c(O)c3)c2cc1OC"
Reply: 5.78

Ask: // repeat for "O=C1Nc2ccccc2/C1=C/Nc1ccc2[nH]c(=O)[nH]c2c1" and report
Reply: 5.3

Ask: Okay, and "COc1cc2ncnc(Nc3ccc4c(cnn4Cc4ccccc4)c3)c2cc1OC" ?
Reply: 2.52

Ask: Record: "N#Cc1c(NC(=O)c2ccccc2F)sc2c1CCCC2"
Reply: 1.03

Ask: Same read-out for "CS(=O)(=O)Nc1cccc(-c2ccc3c(NC(=O)C4CC4)n[nH]c3c2)c1" ?
Reply: 1.36

Ask: Proceed to "CCS(=O)(=O)c1ccc(OC)c(Nc2nccc(N(C)c3ccc4c(C)n[nH]c4c3)n2)c1"
Reply: 5.67

Ask: Further, for "Cc1ccc2c(-c3ccnc(Nc4cccc(C(F)(F)F)c4)n3)c(-c3ccccc3)nn2n1" ?
Reply: 6.28

Ask: Next entry: "COC(=O)c1ccc2c(c1)C(=Cc1cc(Br)c(O)c(Br)c1)C(=O)N2"
Reply: 4.16

Ask: And "NS(=O)(=O)c1ccc(Nc2cc(-c3cccc(O)c3)n[nH]2)cc1" ?
Reply: 6.7

----------
biological target: Cytoplasmic tyrosine-protein kinase BMX (Homo sapiens); conditions: at 0.1 µM
Description: GSK_PKIS: BMX mean inhibition at 0.1 uM [Nanosyn]
Quantity: inhibition

Ask: Give the measured inhibition of "NC(=O)c1sc(-n2cnc3ccccc32)cc1OCc1ccccc1Br" .
Reply: 3.03%

Ask: Similarly, "Cc1cc(Cl)cc2c1NC(=O)C2=NNc1ccc(S(N)(=O)=O)cc1" ?
Reply: 3.4%

Ask: Consider next the compound "Cc1nc(-c2ccccc2)n2nc(NCCCN3CCOCC3)ncc12" in the same way.
Reply: 3.56%

Ask: Item: "NS(=O)(=O)c1ccc(NC=C2C(=O)Nc3ccc4ncsc4c32)cc1"
Reply: 6.93%

Ask: Next entry: "COC(=O)c1cncc(/C=C/c2c(C)cc(O)cc2C)c1"
Reply: 4.1%

Ask: Can you check "NC(=O)c1cccc(Nc2nccc(Nc3cccc(F)c3)n2)c1" next?
Reply: 4.88%

Ask: Entry "ON=C1CCc2cc(-c3nc(C4CCNCC4)[nH]c3-c3ccncc3)ccc21" please
Reply: 1.43%

Ask: "NS(=O)(=O)c1ccc(Nc2cc(-c3cccc(O)c3)n[nH]2)cc1" , same question.
Reply: -0.08%

Ask: Next compound up: CCCN1CCCC(c2ccc(Nc3nc(Nc4cc(F)ccc4C(N)=O)c4cc[nH]c4n3)c(OC)c2)C1 (stereo unspecified)
Reply: 5.67%

Ask: Another: "COc1cccc(-n2ncc3c(N/N=C/c4ccc(C)cc4)ncnc32)c1"
Reply: 5.21%

Ask: What do we get for "NS(=O)(=O)c1cccc(Nc2cc(-c3ccc(F)cc3)n[nH]2)c1" ?
Reply: -2.37%

----------
target: Casein kinase I isoform gamma-2 (Homo sapiens) (UniProt P78368); conditions: at 1 µM
Sequence (P78368 whole entry, looked up, canonical isoform): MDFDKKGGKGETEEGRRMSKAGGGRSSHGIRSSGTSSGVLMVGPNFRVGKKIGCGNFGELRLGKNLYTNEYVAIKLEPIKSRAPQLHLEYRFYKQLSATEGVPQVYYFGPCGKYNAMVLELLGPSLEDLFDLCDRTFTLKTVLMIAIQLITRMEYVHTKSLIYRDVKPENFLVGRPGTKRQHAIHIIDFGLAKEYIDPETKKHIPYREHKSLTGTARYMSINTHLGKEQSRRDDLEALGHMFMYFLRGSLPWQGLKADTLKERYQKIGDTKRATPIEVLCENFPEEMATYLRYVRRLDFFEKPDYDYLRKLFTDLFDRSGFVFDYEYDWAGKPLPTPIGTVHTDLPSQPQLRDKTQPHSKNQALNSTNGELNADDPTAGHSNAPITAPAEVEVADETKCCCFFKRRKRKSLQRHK
Description: GSK_PKIS: CK1-g2 mean inhibition at 1 uM [Nanosyn]
For each record, write down the corresponding inhibition.
# number only, unit % dropped from output

Ask: Look up inhibition: "Nc1nccc(-c2c(-c3ccc(F)cc3)nn3cc(C(F)(F)F)ccc23)n1"
Reply: 1.13

Ask: Request: "COc1ccc(-c2nn3ncccc3c2-c2ccnc(Nc3cccc(C(F)(F)F)c3)n2)cc1"
Reply: 2.2

Ask: Continue with "Cc1ccc2c(-c3ccnc(Nc4cccc(C(F)(F)F)c4)n3)c(-c3ccccc3)nn2n1"
Reply: 12

Ask: What about "Cc1cc(-c2ccccn2)cc(C)c1/C=C/c1cncc(-c2nn[nH]n2)c1" ?
Reply: 6.46

Ask: Cool, now "Cc1ccc(O)cc1Nc1ccnc2ccc(S(C)(=O)=O)cc12"
Reply: 6.1

Ask: Param item: "ON=C1CCc2cc(-c3nc(C4CCNCC4)[nH]c3-c3ccncc3)ccc21"
Reply: 1.04

Ask: Quick one: "CN1CCN(C(=O)c2ccc(NC(=O)Nc3ccc(N(C)c4ccnc(Nc5ccc(CS(C)(=O)=O)cc5)n4)cc3)cc2)CC1"
Reply: 1.64

Ask: And what about the compound "COc1cccc(-n2ncc3c(N/N=C/c4ccc(S(C)(=O)=O)cc4)ncnc32)c1" ?
Reply: -0.73

Ask: Now this one: "NS(=O)(=O)c1cccc(Nc2cc(-c3ccc(F)cc3)n[nH]2)c1"
Reply: 4.87

Ask: Next compound: "Cc1ccc(Nc2ccnc(Nc3cccc(C(N)=O)c3)n2)cc1O"
Reply: 0.87

----------
biological target: Tyrosine-protein kinase ABL1 (Homo sapiens); settings: at 1 µM;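 note: reported values are mean percent inhibition of ABL1 kinase activity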
Quantity: inhibition

Ask: Could you share which inhibition value was measured for "Cc1ccc(Nc2ccnc(Nc3cccc(C(N)=O)c3)n2)cc1O" ?
Reply: 79.5%

Ask: Try this molecule too: "c1ccc(Cc2nc3ccc(Nc4ncnc5ccccc45)cc3[nH]2)cc1"
Reply: 11.3%

Ask: Do the same for "NS(=O)(=O)c1ccc(N/N=C2\C(=O)Nc3ccc(Cl)cc32)cc1" please
Reply: 10.6%

Ask: Ok, now "Cc1ccc2c(-c3ccnc(Nc4ccc5c(c4)OCCO5)n3)c(-c3ccc(C(F)(F)F)cc3)nn2n1"
Reply: 4.52%

Ask: And "CCn1c(-c2nonc2N)nc2c(C#CC(C)(C)O)nc(OCCNC)cc21" ?
Reply: 5.14%

Ask: Now consider "CN1CCN(C(=O)c2ccc(NC(=O)Nc3ccc(N(C)c4ccnc(Nc5ccc(CS(C)(=O)=O)cc5)n4)cc3)cc2)CC1" .
Reply: 43.9%

Ask: Do the same for "Cc1cc(O)cc(C)c1/C=C/c1cncc(C(=O)N(C)C)c1" please
Reply: 17.9%

Ask: Continue with "Nc1nccc(-c2c(-c3ccc(F)cc3)ncn2CCCN2CCOCC2)n1"
Reply: 7.25%

Ask: Could you do the same for "COc1cc2ncnc(Nc3ccc4c(cnn4Cc4ccccc4)c3)c2cc1OC" , please?
Reply: 3.36%

Ask: // query: "COc1cccc(-n2nc(C)c3c(N/N=C(\C)c4ccncc4)ncnc32)c1"
Reply: 9.11%

Ask: Another molecule to check: "ON=C1CCc2cc(-c3nc(C4CCNCC4)[nH]c3-c3ccncc3)ccc21"
Reply: 4.12%

Ask: Same again, this time with "CC(C)c1ccc2c(c1)NC(=O)/C2=N/Nc1ccc(S(N)(=O)=O)cc1"
Reply: 32.8%
